Where these numbers come from: paper PMC7540527

tested on: influenza A and B viruses; format: cell-based, influenza virus
RESULT_TYPE: Activity against influenza strains (in words)

| COMPOUND | TEST_VALUE |
| --- | --- |
| CC(=O)NC1C(OC2c3ccc(c(Cl)c3)Oc3cc4cc(c3O)Oc3ccc(cc3Cl)CC3NC(=O)C(n5cc(COCCOCCCC(F)(F)C(F)(F)C(F)(F)C(F)(F)C(F)(F)C(F)(F)C(F)(F)C(F)(F)F)nn5)c5ccc(O)c(c5)Oc5cc(O)cc(c5)C(NC3=O)C(=O)NC4C(=O)NC3C(=O)NC2C(=O)NC(C(=O)O)c2cc(O)cc(O)c2-c2cc3ccc2O)OC(CO)C(O)C1O (stereo not shown) [Compound 17] | robust activity |
| CC(=O)NC1C(OC2c3ccc(c(Cl)c3)Oc3cc4cc(c3O)Oc3ccc(cc3Cl)CC3NC(=O)C(n5cc(COCCOCCCC(F)(F)C(F)(F)C(F)(F)C(F)(F)F)nn5)c5ccc(O)c(c5)Oc5cc(O)cc(c5)C(NC3=O)C(=O)NC4C(=O)NC3C(=O)NC2C(=O)NC(C(=O)O)c2cc(O)cc(O)c2-c2cc3ccc2O)OC(CO)C(O)C1O (stereo not shown) [Compound 15] | robust activity |
| CC(=O)NC1C(OC2c3ccc(c(Cl)c3)Oc3cc4cc(c3O)Oc3ccc(cc3Cl)CC3NC(=O)C(n5cc(COCCOCCOCCOCCOCCCC(F)(F)C(F)(F)C(F)(F)C(F)(F)F)nn5)c5ccc(O)c(c5)Oc5cc(O)cc(c5)C(NC3=O)C(=O)NC4C(=O)NC3C(=O)NC2C(=O)NC(C(=O)O)c2cc(O)cc(O)c2-c2cc3ccc2O)OC(CO)C(O)C1O (stereo not shown) [Compound 16] | robust activity |

====

Kindly supply the reported CC50 values for the records listed here.
tested on: MDCK cells; details: dog
// note: answer is a bare numeric in µM

Prompt: Lab note: need CC50 for CC(C)C[C@H](C(=O)N[C@H]1C(=O)N[C@@H](CC(N)=O)C(=O)N[C@H]2C(=O)N[C@H]3C(=O)N[C@H](C(=O)N[C@H](C(=O)O)c4cc(O)cc(O)c4-c4cc3ccc4O)[C@H](O)c3ccc(c(Cl)c3)Oc3cc2cc(c3O)Oc2ccc(cc2Cl)[C@H]1O)n1cc(COCCOCCOCCOCCOCCCC(F)(F)C(F)(F)C(F)(F)C(F)(F)F)nn1 on MDCK cells, anyone have it?
Completion: 4

Prompt: Lab note: need CC50 for CC(=O)NC1C(OC2c3ccc(c(Cl)c3)Oc3cc4cc(c3O)Oc3ccc(cc3Cl)CC3NC(=O)C(n5cc(COCCOCCOCCOCCOCCCC(F)(F)C(F)(F)C(F)(F)C(F)(F)C(F)(F)C(F)(F)C(F)(F)C(F)(F)F)nn5)c5ccc(O)c(c5)Oc5cc(O)cc(c5)C(NC3=O)C(=O)NC4C(=O)NC3C(=O)NC2C(=O)NC(C(=O)O)c2cc(O)cc(O)c2-c2cc3ccc2O)OC(CO)C(O)C1O (stereo not shown) on MDCK cells, anyone have it?
Completion: 4.2

====

test system: Vero cells; conditions: African green monkey
RESULT_TYPE: CC50

Prompt: Which CC50 value belongs to CC(=O)NC1C(OC2c3ccc(c(Cl)c3)Oc3cc4cc(c3O)Oc3ccc(cc3Cl)CC3NC(=O)C(n5cc(COCCOCCOCCOCCOCCCC(F)(F)C(F)(F)C(F)(F)C(F)(F)C(F)(F)C(F)(F)C(F)(F)C(F)(F)F)nn5)c5ccc(O)c(c5)Oc5cc(O)cc(c5)C(NC3=O)C(=O)NC4C(=O)NC3C(=O)NC2C(=O)NC(C(=O)O)c2cc(O)cc(O)c2-c2cc3ccc2O)OC(CO)C(O)C1O (stereo not drawn) ?
Completion: > 100 µM

Prompt: Which CC50 value belongs to CC(=O)NC1C(OC2c3ccc(c(Cl)c3)Oc3cc4cc(c3O)Oc3ccc(cc3Cl)CC3NC(=O)C(n5cc(COCCOCCCC(F)(F)C(F)(F)C(F)(F)C(F)(F)C(F)(F)C(F)(F)C(F)(F)C(F)(F)F)nn5)c5ccc(O)c(c5)Oc5cc(O)cc(c5)C(NC3=O)C(=O)NC4C(=O)NC3C(=O)NC2C(=O)NC(C(=O)O)c2cc(O)cc(O)c2-c2cc3ccc2O)OC(CO)C(O)C1O (stereo not drawn) ?
Completion: > 100 µM

Prompt: Which CC50 value belongs to CC(=O)NC1C(OC2c3ccc(c(Cl)c3)Oc3cc4cc(c3O)Oc3ccc(cc3Cl)CC3NC(=O)C(n5cc(COCCOCCOCCOCCOCCCC(F)(F)C(F)(F)C(F)(F)C(F)(F)F)nn5)c5ccc(O)c(c5)Oc5cc(O)cc(c5)C(NC3=O)C(=O)NC4C(=O)NC3C(=O)NC2C(=O)NC(C(=O)O)c2cc(O)cc(O)c2-c2cc3ccc2O)OC(CO)C(O)C1O (stereo not drawn) ?
Completion: > 100 µM

====

tested on: Sindbis virus; experiment: microbe, parasite or virus in culture; assay type: cell-based; conditions: Vero, read-out: Antiviral EC50 Sindbis virus, Visual CPE score
RESULT_TYPE: pEC50
The value called pEC50 is obtained by taking minus log10 of the concentration in mol/L.

Prompt: Which pEC50 value belongs to COc1c(C)c2c(c(O)c1C/C=C(\C)CCC(=O)O)C(=O)OC2 ?
Completion: 5.24

====

test system: HeLa cells; settings: human
RESULT_TYPE: Cytotoxicity MCC

Prompt: Which Cytotoxicity MCC value belongs to CC(C)C[C@H](C(=O)N[C@H]1C(=O)N[C@@H](CC(N)=O)C(=O)N[C@H]2C(=O)N[C@H]3C(=O)N[C@H](C(=O)N[C@H](C(=O)O)c4cc(O)cc(O)c4-c4cc3ccc4O)[C@H](O)c3ccc(c(Cl)c3)Oc3cc2cc(c3O)Oc2ccc(cc2Cl)[C@H]1O)n1cc(COCCOCCOCCOCCOCCCC(F)(F)C(F)(F)C(F)(F)C(F)(F)F)nn1 [Compound 12] ?
Completion: > 100

Prompt: Which Cytotoxicity MCC value belongs to CC(=O)NC1C(OC2c3ccc(c(Cl)c3)Oc3cc4cc(c3O)Oc3ccc(cc3Cl)CC3NC(=O)C(n5cc(COCCOCCOCCOCCOCCCC(F)(F)C(F)(F)C(F)(F)C(F)(F)F)nn5)c5ccc(O)c(c5)Oc5cc(O)cc(c5)C(NC3=O)C(=O)NC4C(=O)NC3C(=O)NC2C(=O)NC(C(=O)O)c2cc(O)cc(O)c2-c2cc3ccc2O)OC(CO)C(O)C1O (stereo not shown) [Compound 16] ?
Completion: > 100

Prompt: Which Cytotoxicity MCC value belongs to CC(C)C[C@H](C(=O)N[C@H]1C(=O)N[C@@H](CC(N)=O)C(=O)N[C@H]2C(=O)N[C@H]3C(=O)N[C@H](C(=O)N[C@H](C(=O)O)c4cc(O)cc(O)c4-c4cc3ccc4O)[C@H](O)c3ccc(c(Cl)c3)Oc3cc2cc(c3O)Oc2ccc(cc2Cl)[C@H]1O)n1cc(COCCOCCOCCOCCOCCCC(F)(F)C(F)(F)C(F)(F)C(F)(F)C(F)(F)C(F)(F)C(F)(F)C(F)(F)F)nn1 [Compound 13] ?
Completion: ≥ 100

Prompt: Which Cytotoxicity MCC value belongs to CC(=O)NC1C(OC2c3ccc(c(Cl)c3)Oc3cc4cc(c3O)Oc3ccc(cc3Cl)CC3NC(=O)C(n5cc(COCCOCCCC(F)(F)C(F)(F)C(F)(F)C(F)(F)C(F)(F)C(F)(F)C(F)(F)C(F)(F)F)nn5)c5ccc(O)c(c5)Oc5cc(O)cc(c5)C(NC3=O)C(=O)NC4C(=O)NC3C(=O)NC2C(=O)NC(C(=O)O)c2cc(O)cc(O)c2-c2cc3ccc2O)OC(CO)C(O)C1O (stereo not shown) [Compound 17] ?
Completion: > 100

====

test system: MDCK cells; details: dog
RESULT_TYPE: Cytotoxicity MCC (minimum cytotoxic concentration) (µM)
// note: answer is a bare numeric in µM

Prompt: Lab note: need Cytotoxicity MCC (minimum cytotoxic concentration) for CC(=O)NC1C(OC2c3ccc(c(Cl)c3)Oc3cc4cc(c3O)Oc3ccc(cc3Cl)CC3NC(=O)C(n5cc(COCCOCCCC(F)(F)C(F)(F)C(F)(F)C(F)(F)C(F)(F)C(F)(F)C(F)(F)C(F)(F)F)nn5)c5ccc(O)c(c5)Oc5cc(O)cc(c5)C(NC3=O)C(=O)NC4C(=O)NC3C(=O)NC2C(=O)NC(C(=O)O)c2cc(O)cc(O)c2-c2cc3ccc2O)OC(CO)C(O)C1O (centres unmarked) [Compound 17] on MDCK cells, anyone have it?
Completion: 100

====

test system: Coxsackie virus B4; assay: microbe, parasite or virus in culture; type: cell-based; conditions: Enterovirus B, B4, Vero, read-out: Antiviral EC50 Coxsackie virus B4, MTS
pEC50: −log10 of the molar value.
RESULT_TYPE: pEC50

Prompt: Which pEC50 value belongs to COc1c(C)c2c(c(O)c1C/C=C(\C)CCC(=O)O)C(=O)OC2 [Mycophenolic acid] ?
Completion: < 4.00
